# Experimental Target: PKCβII (Homo sapiens, UniProt P05771)
# Sequence (P05771 1-673 isoform P05771-2): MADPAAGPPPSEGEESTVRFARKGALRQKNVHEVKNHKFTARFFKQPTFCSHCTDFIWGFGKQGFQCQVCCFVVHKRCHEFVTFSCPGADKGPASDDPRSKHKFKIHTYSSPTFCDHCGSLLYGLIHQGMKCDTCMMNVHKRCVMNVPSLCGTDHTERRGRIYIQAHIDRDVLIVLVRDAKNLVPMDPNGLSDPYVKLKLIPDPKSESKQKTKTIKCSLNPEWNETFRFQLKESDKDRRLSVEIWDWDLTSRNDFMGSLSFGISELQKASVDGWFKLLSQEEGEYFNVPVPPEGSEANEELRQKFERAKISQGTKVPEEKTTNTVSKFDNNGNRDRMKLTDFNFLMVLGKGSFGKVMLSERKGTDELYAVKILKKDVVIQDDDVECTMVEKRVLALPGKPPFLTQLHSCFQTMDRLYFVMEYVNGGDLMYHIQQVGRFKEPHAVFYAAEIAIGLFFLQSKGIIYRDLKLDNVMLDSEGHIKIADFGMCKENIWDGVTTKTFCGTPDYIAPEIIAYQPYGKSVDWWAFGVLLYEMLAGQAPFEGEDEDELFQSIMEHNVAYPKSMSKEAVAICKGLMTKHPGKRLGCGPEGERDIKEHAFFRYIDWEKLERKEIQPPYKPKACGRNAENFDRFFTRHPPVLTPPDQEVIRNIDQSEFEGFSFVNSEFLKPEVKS
pIC50: −log10 of the molar value.
Measurement Kind: pIC50

// query pIC50 value for entry CC(C)n1nc(-c2cccc(C(=O)NC3=NCCS3)c2)c2c(N)ncnc21
< 5.00

Origin of values: paper PMC2637922
